This collection of values is drawn from patent US4912215A.

# IC50 per record follows
# EXPERIMENTAL_DETAILS: Superoxide anion scavenging activity (method of McCord and Fridovich, xanthine/xanthine oxidase, ferricytochrome C)
# Assay type: biochemical
# RUN_CONDITIONS: pH 7.8, 25° C., xanthine/xanthine oxidase, ferricytochrome C; read-out: concentration of the compound which showed one unit of SOD activity (50% reduction of increase in absorbance at 550 nm)
# Experimental: The compounds according to the invention were tested for superoxide anion scavenging activity by the method of McCord and Fridovich [J. Biol. Chem., 244 (22), 6049-6055 1969) . Thus, xanthine oxidase was added to 5 ×10^-2 M potassium phosphate buffer (pH 7.8) containing 1 ×10^-4 M EDTA, 1×10^-5 M ferricytochrome C and 5×10^-5 M xanthine to give a reaction system in which the rate of increase in absorbance at 550 nm as determined at 25° C. amounted to 0.025 per minute.
Give the value in µM but do not write µM after it.

As a guide, the following entries are already answered.
CC1=CC(C)C(O)C2=CC(=O)C=C(NC(=O)C(C)C(=O)C(C)C1)C2=O (stereo not shown) [Q-1047H-A-B]; 22
CC1=CC(C)C(OC2CCC(O)C(C)O2)C2=CC(=O)C=C(NC(=O)C(C)C(=O)C(C)C1)C2=O (stereo not shown) [Q-1047-B]; 35

Challenge: # query: IC50 of entry CC1=CC(C)C(OC2CCC(O)C(C)O2)C2=CC(=O)C=C(NC(=O)C(C)C(=O)C(C)C1)C2=O (stereo not shown) [Q-1047-A]
Response given: 5.6

Challenge: Then CC1=CC(C)C(O)C2=CC(=O)C=C(NC(=O)C(C)C(=O)C(C)C1)C2=O (stereo not shown) [Q-1047H-A-A] ?
Response given: 25
